Biological target: PD-1/PD-L1 (Homo sapiens (Human))
Test: PD-1/PD-L1 Binding Assay (Alphascreen)
Settings: range symbols
Protocol: PD-1/PD-L1 Binding Assay (Alphascreen) The assays were conducted in a standard black 384-well polystyrene plate with a final volume of 20 μL. Inhibitors were first serially diluted in DMSO and then added to the plate wells before the addition of other reaction components. The final concentration of DMSO in the assay was 1%. […] Read the AlphaLISA signal value using the Envision Reader. […]
ENDPOINT_NAME: IC50

Reference set (5 entries):
COc1nc(-c2cccc(-c3cccc(-c4nc5cc(CN6CCC[C@@H]6C(=O)O)c(OC(F)F)cc5o4)c3C)c2C)ccc1CN1CC[C@H](C)C1 [Example 273] ... 5 to 50 nM
Cc1c(-c2nc3cc(CN4CCC[C@H]4C(=O)O)c(OC(F)F)cc3o2)cccc1-c1cccc(-c2ccc(CN3CCCC3)cc2F)c1Cl [Example 222] ... 0.1 to 5 nM
Cc1c(-c2nc3cc(CN4CCC[C@H]4C(=O)O)c(OC(F)F)cc3o2)cccc1-c1cccc(-c2nc3cc(CN4CC[C@H](Cl)C4)cc(C#N)c3o2)c1C [Example 261] ... 0.1 to 5 nM
Cc1c(-c2nc3cc(CN4CC(S(C)(=O)=O)C4)c(OC(F)F)cc3o2)cccc1-c1cccc(-c2nc3cc(CN4CCC[C@H]4C(=O)O)c(OC(F)F)cc3o2)c1C [Example 41] ... 5 to 50 nM
Cc1c(-c2nc3cc(CN4CCC45CCC5)ccc3o2)cccc1-c1cccc(-c2nc3cc(CN4CCC[C@H]4C(=O)O)c(OC(F)F)cc3o2)c1C [Example 107] ... 0.1 to 5 nM

Using the record for Cc1c(-c2nc3cc(CN4CC(C)(C#N)C4)c(OC(F)F)cc3o2)cccc1-c1cccc(-c2nc3cc(CN4CCC[C@H]4C(=O)O)c(OC(F)F)cc3o2)c1C [Example 79] , report its IC50.
0.1 to 5 nM

Can you share its IC50? I mean this compound: Cc1c(-c2nc3cc(CN4CC5(CCC5)C4)c(OC(F)F)cc3o2)cccc1-c1cccc(-c2nc3cc(CN4CCC[C@H]4C(=O)O)c(OC(F)F)cc3o2)c1C [Example 48]
0.1 to 5 nM

So what's the measured IC50 for this one? Cc1c(-c2nc3cc(CN(C)C)c(OCc4cncc(S(C)(=O)=O)c4)cc3o2)cccc1-c1cccc(-c2nc3cc(CN4CCC[C@H]4C(=O)O)c(OC(F)F)cc3o2)c1C [Example 123]
0.1 to 5 nM

Find the recorded IC50 belonging to Cc1c(-c2nc3cc(CN4CCCC4C)c(OC(F)F)cc3o2)cccc1-c1cccc(-c2nc3cc(CN4CCC[C@H]4C(=O)O)c(OC(F)F)cc3o2)c1C (stereo partly shown) [Example 38] and report it.
0.1 to 5 nM

May I ask what IC50 has been recorded for Cc1c(-c2nc3c(o2)CCN(CCCO)C3)cccc1-c1cccc(-c2nc3cc(CN4CCC[C@H]4C(=O)O)c(OC(F)F)cc3o2)c1C [Example 199] ?
5 to 50 nM

What value of IC50 has been reported for the following compound? Cc1c(-c2nc3cc(CN4CCC[C@H]4C(=O)O)c(OC(F)F)cc3o2)cccc1-c1cccc(-c2ccc(CN3CCCC3)nc2F)c1C [Example 270]
5 to 50 nM

---

Assay: Pharmacokinetic Assay, single oral dose 100 mg/kg (Table 11)
Format: in vivo
Conditions: mouse, C57 female mice, oral (intragastric), plasma
ENDPOINT_NAME: Tmax (h)

Cc1c(-c2ccc(CN3CCCC3)c(F)c2)cccc1-c1cccc(-c2nc3cc(CN4CCC[C@H]4C(=O)O)c(OC(F)F)cc3o2)c1C [Example 243] ... 1
COC[C@@H]1CCCN1Cc1cc2nc(-c3cccc(-c4cccc(-c5nc6cc(CN7CCC[C@H]7C(=O)O)c(OC(F)F)cc6o5)c4C)c3C)oc2cc1OC(F)F [Example 63] ... 1
COC(=O)[C@@H]1CCCN1Cc1cc2nc(-c3cccc(-c4cccc(-c5nc6cc(CN7CCC[C@H]7C(=O)O)c(OC(F)F)cc6o5)c4C)c3C)oc2cc1OC(F)F [Example 3] ... 1

[a] Cc1c(-c2nc3cc(CN4CCC[C@H]4C(=O)O)c(OC(F)F)cc3o2)cccc1-c1cccc(-c2nc3cc(CN4CCCC4)cc(C(F)(F)F)c3o2)c1C [Example 100]
[b] Cc1c(-c2nc3cc(CN4CCC[C@H]4CO)c(OC(F)F)cc3o2)cccc1-c1cccc(-c2nc3cc(CN4CCC[C@H]4C(=O)O)c(OC(F)F)cc3o2)c1C [Example 12]
[c] Cc1c(-c2nc3ccc(CN4CCCC4)cc3o2)cccc1-c1cccc(-c2nc3cc(CN4CCC[C@H]4C(=O)O)c(OC(F)F)cc3o2)c1C [Example 108]
Exam item: list the entries in increasing order of Tmax. Please express your ranking as an ordered list of the labels.
c, b, a
(c: 1 h, b: 2 h, a: 4 h)

---

Target: PD-1/PD-L1 (Homo sapiens (Human), UniProt Q9NZQ7)
Sequence (Q9NZQ7 19-238): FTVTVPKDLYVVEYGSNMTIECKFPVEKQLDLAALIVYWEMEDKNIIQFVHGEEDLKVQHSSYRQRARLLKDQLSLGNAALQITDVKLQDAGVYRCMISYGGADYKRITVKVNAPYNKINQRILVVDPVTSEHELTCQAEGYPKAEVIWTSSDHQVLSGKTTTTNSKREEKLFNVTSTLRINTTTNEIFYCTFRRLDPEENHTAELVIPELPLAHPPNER
Test: PD-1/PD-L1 Binding Assay (Alphascreen)
Conditions: numeric values
Protocol: PD-1/PD-L1 Binding Assay (Alphascreen) The assays were conducted in a standard black 384-well polystyrene plate with a final volume of 20 μL. Inhibitors were first serially diluted in DMSO and then added to the plate wells before the addition of other reaction components. The final concentration of DMSO in the assay was 1%. […] Read the AlphaLISA signal value using the Envision Reader. […]
pIC50: −log10 of the molar value.
ENDPOINT_NAME: pIC50

Sample answers from the record:
Cc1c(-c2nc3cc(CN4CCC[C@H]4C(=O)O)c(OC(F)F)cc3o2)cccc1-c1cccc(-c2nc3cc(CN4CC(C)(C)C4)c(OC(F)F)cc3o2)c1C#N ... 8.85
Cc1c(-c2nc3cc(CN4CCC[C@H]4C(=O)O)c(OC(F)F)cc3o2)cccc1-c1cccc(-c2nc3cc(CN4CCCC4)c(OC(F)F)cc3o2)c1F ... 8.37
Cc1c(-c2nc3cc(CN4CCC(O)C4)c(OC(F)F)cc3o2)cccc1-c1cccc(-c2nc3cc(CN4CCC[C@H]4C(=O)O)c(OC(F)F)cc3o2)c1C (stereo partly shown) ... 8.92

[A] CNCc1cc2nc(-c3cccc(-c4cccc(-c5nc6cc(CN7CCC[C@H]7C(=O)O)c(OC(F)F)cc6o5)c4C)c3C)oc2cc1OC(F)F
[B] Cc1c(-c2nc3cc(CN(C)[C@@H]4CCC[C@@H]4O)c(OC(F)F)cc3o2)cccc1-c1cccc(-c2nc3cc(CN4CCC[C@H]4C(=O)O)c(OC(F)F)cc3o2)c1C
[C] Cc1c(-c2ccc(CN3CCCC3)c(F)c2)cccc1-c1cccc(-c2nc3cc(CN4CCC[C@H]4C(=O)O)c(OC(F)F)cc3o2)c1C
# rank by pIC50, ascending (min first) # the answer lists labels in the order requested
C, B, A
(C: 8.60, B: 9.05, A: 9.30)

[P] Cc1c(-c2ccc(CNCCO)cc2)cccc1-c1cccc(-c2nc3cc(CN4CCC[C@H]4C(=O)O)c(OC(F)F)cc3o2)c1C
[Q] Cc1c(-c2nc3cc(CN4CCN(C)C(C)C4)c(OC(F)F)cc3o2)cccc1-c1cccc(-c2nc3cc(CN4CCC[C@H]4C(=O)O)c(OC(F)F)cc3o2)c1C (stereo partly shown)
Kindly compare P with Q and tell me which has the lower pIC50 figure. // output: label of the selected item
Q

[A] Cc1c(-c2nc3cc(CN4CCCC4)c(F)c(F)c3[nH]2)cccc1-c1cccc(-c2nc3cc(CN4CCC[C@H]4C(=O)O)c(OC(F)F)cc3o2)c1C
[B] Cc1c(-c2c[nH]c([C@@H]3CCCN3)n2)cccc1-c1cccc(-c2nc3cc(CN4CCC[C@H]4C(=O)O)c(OC(F)F)cc3o2)c1C
[C] Cc1c(-c2cnc(CN3CCCC3)nc2)cccc1-c1cccc(-c2nc3cc(CN4CCC[C@H]4C(=O)O)c(OC(F)F)cc3o2)c1C
Sort the compounds on pIC50; start with the lowest figure. In your reply, arrange the labels in the requested order.
A, B, C

---

Test: Pharmacokinetic Assay, single oral dose 100 mg/kg (Table 11)
Type: in vivo
Details: mouse, C57 female mice, oral (intragastric), plasma
ENDPOINT_NAME: Cmax (ng/mL)

Cc1c(-c2nc3cc(CNC[C@@H]4CCCO4)c(OC(F)F)cc3o2)cccc1-c1cccc(-c2nc3cc(CN4CCC[C@H]4C(=O)O)c(OC(F)F)cc3o2)c1C ... 4320
Cc1c(-c2nc3cc(CN4CCC[C@H]4CO)c(OC(F)F)cc3o2)cccc1-c1cccc(-c2nc3cc(CN4CCC[C@H]4C(=O)O)c(OC(F)F)cc3o2)c1C ... 1380
Cc1c(-c2ccc(CN3CCCC3)c(F)c2)cccc1-c1cccc(-c2nc3cc(CN4CCC[C@H]4C(=O)O)c(OC(F)F)cc3o2)c1C ... 4890

[A] Cc1c(-c2nc3cc(CN4CC(N(C)C)C4)c(OC(F)F)cc3o2)cccc1-c1cccc(-c2nc3cc(CN4CCC[C@H]4C(=O)O)c(OC(F)F)cc3o2)c1C
[B] Cc1c(-c2nc3cc(CN4CCC[C@H]4C(=O)O)c(OC(F)F)cc3o2)cccc1-c1cccc(-c2nc3cc(CN4CCC(C)C4)cc(C(F)(F)F)c3o2)c1C (some centres unmarked)
[C] Cc1c(-c2nc3cc(CN4CCC[C@H]4C(=O)O)c(OC(F)F)cc3o2)cccc1-c1cccc(-c2nc3cc(CN4CC(C)(C)C4)cc(C#N)c3o2)c1C
[D] Cc1c(-c2nc3cc(CN4CCC4C)c(OC(F)F)cc3o2)cccc1-c1cccc(-c2nc3cc(CN4CCC[C@H]4C(=O)O)c(OC(F)F)cc3o2)c1C (some centres unmarked)
[E] Cc1c(-c2nc3cc(CN4CCC[C@H]4C(=O)O)c(OC(F)F)cc3o2)cccc1-c1cccc(-c2nc3cc(CN4CCCC4)c(OC(F)F)cc3o2)c1C#N
Thanks in advance: please rank these 5 entries by Cmax, highest to lowest. Reply with the labels, ordered as the question asks.
B, C, E, D, A
